SUBJECT OF TEST: KRAS G12D (Homo sapiens, UniProt P01116, G12D)
Sequence (P01116 1-188 isoform P01116-2 G12D): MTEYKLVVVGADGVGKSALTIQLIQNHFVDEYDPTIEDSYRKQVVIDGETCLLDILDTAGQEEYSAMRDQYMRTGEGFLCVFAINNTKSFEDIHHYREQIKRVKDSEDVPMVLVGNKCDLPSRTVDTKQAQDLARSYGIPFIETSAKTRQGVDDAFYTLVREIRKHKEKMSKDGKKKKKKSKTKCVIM
TEST METHOD NOTES: GDP-GTP exchange assay (KRAS G12D);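 also: one dagger IC50 up to 100 nM and two daggers above 100 nM up to 1 μM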
Type: biochemical
MEASUREMENT SETUP: bodipy-GDP/GppNHp exchange with SOS1; 4 h pre-incubation, 2 h reaction
QUANTITY: G12D_exchange (KRAS_G12D exchange assay IC50)

# COMPOUND, EXPERIMENTAL RESULT
records = [
    ("Cc1nc2c(F)c(-c3cccc(Cl)c3Cl)c(CCC#N)cc2c2c1cc([C@H]1[C@H]3C[C@H](CN(c4ccc5c(c4)OC(F)(F)O5)C3)N1C(=O)C1CC1)n2[C@H]1[C@H]2CN[C@@H]1C2 (atropisomer, axis not shown; (Ra))", "†"),
    ("Cc1ncnc(N2C[C@@H]3C[C@H](C2)N(C(=O)C2CC2)[C@H]3c2cc3c(C)nc4c(F)c(-c5cccc(Cl)c5Cl)c(CCC#N)cc4c3n2[C@H]2[C@H]3CN[C@@H]2C3)c1F (atropisomer, axis not shown; (Ra))", "†"),
    ("Cc1nc2c(F)c(-c3cccc(Cl)c3Cl)c(CCC#N)cc2c2c1cc([C@H]1[C@H]3C[C@H](CN(c4cnc5cccnc5c4)C3)N1C(=O)C1CC1)n2[C@H]1[C@H]2CN[C@@H]1C2 (atropisomer, axis not shown; (Ra))", "†"),
    ("Cc1cc(N2C[C@@H]3C[C@H](C2)N(C(=O)C2CC2)[C@H]3c2cc3c(C)nc4c(F)c(-c5cccc(Cl)c5Cl)c(CCC#N)cc4c3n2[C@H]2[C@H]3CN[C@@H]2C3)cc(C(F)F)n1 (atropisomer, axis not shown; (Ra))", "†"),
]

Okay, next one:
For this compound ( Cc1nc2c(F)c(-c3cccc(Cl)c3Cl)c(CCC#N)cc2c2c1cc(C1C3CC(CN(C)C3=O)N1C(=O)C1CC1)n2C1C2CNC1C2 (atropisomer, axis not shown; (Ra)) ), measured G12D_exchange (KRAS_G12D exchange assay IC50) is ††

* * *

SUBJECT OF TEST: KRAS G12D (Homo sapiens, UniProt P01116, G12D)
TEST METHOD NOTES: GDP-GTP exchange assay (KRAS G12D);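 also: one dagger IC50 up to 100 nM and two daggers above 100 nM up to 1 μM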
Assay type: biochemical
MEASUREMENT SETUP: bodipy-GDP/GppNHp exchange with SOS1; 4 h pre-incubation, 2 h reaction
QUANTITY: G12D_exchange (KRAS_G12D exchange assay IC50)

Some molecules with known G12D_exchange (KRAS_G12D exchange assay IC50) results, for comparison:
# MOLECULE, SUBJECT OF TEST, EXPERIMENTAL RESULT
records = [
    ("Cc1sc(N2C[C@@H]3C[C@H](C2)N(C(=O)C2CC2)[C@H]3c2cc3c(C)nc4c(F)c(-c5cccc(Cl)c5Cl)c(CCC#N)cc4c3n2[C@H]2[C@H]3CN[C@@H]2C3)nc1C(C)(F)F (atropisomer, axis not shown; (Ra)) [Example 103]", "KRAS G12D (Homo sapiens, UniProt P01116, G12D)", "†"),
    ("[2H]C1([2H])[C@@H]2C[C@H](CN1c1ncc(C(C)C)s1)N(C(=O)C1CC1)[C@H]2c1cc2c(C)nc3c(F)c(-c4cccc(Cl)c4Cl)c(CCC#N)cc3c2n1[C@H]1[C@H]2CN[C@@H]1C2 (atropisomer, axis not shown; (Ra)) [Example 123]", "KRAS G12D (Homo sapiens, UniProt P01116, G12D)", "††"),
    ("Cc1csc(N2C[C@@H]3C[C@H](C2)N(C(=O)C2CC2)[C@H]3c2cc3c(C)nc4c(F)c(-c5cccc(Cl)c5Cl)c(CCC#N)cc4c3n2[C@H]2[C@H]3CN[C@@H]2C3)n1 (atropisomer, axis not shown; (Ra)) [Example 90]", "KRAS G12D (Homo sapiens, UniProt P01116, G12D)", "†"),
    ("COc1ccc(N2C[C@@H]3C[C@H](C2)N(C(=O)C2CC2)[C@H]3c2cc3c(C)nc4c(F)c(-c5cccc(Cl)c5Cl)c(CCC#N)cc4c3n2[C@H]2[C@H]3CN[C@@H]2C3)cn1 (atropisomer, axis not shown; (Ra)) [Example 24]", "KRAS G12D (Homo sapiens, UniProt P01116, G12D)", "††"),
    ("Cc1nc2c(F)c(-c3cccc(Cl)c3Cl)c(CCC#N)cc2c2c1cc([C@H]1[C@H]3C[C@H](CN(c4ccc(C#N)cc4)C3)N1C(=O)C1CC1)n2[C@H]1[C@H]2CN[C@@H]1C2 (atropisomer, axis not shown; (Ra)) [Example 4]", "KRAS G12D (Homo sapiens, UniProt P01116, G12D)", "†"),
    ("Cc1c(N2C[C@@H]3C[C@H](C2)N(C(=O)C2CC2)[C@H]3c2cc3c(C)nc4c(F)c(-c5cccc(Cl)c5Cl)c(CCC#N)cc4c3n2[C@H]2[C@H]3CN[C@@H]2C3)ccnc1F (atropisomer, axis not shown; (Ra)) [Example 76]", "KRAS G12D (Homo sapiens, UniProt P01116, G12D)", "†"),
    ("Cc1nc2c(F)c(-c3cccc(Cl)c3Cl)c(CCC#N)cc2c2c1cc([C@H]1CCN(c3ccccc3)CCN1C(=O)C1CC1)n2[C@H]1[C@H]2CN[C@@H]1C2 (atropisomer, axis not shown; (Ra)) [Example 117]", "KRAS G12D (Homo sapiens, UniProt P01116, G12D)", "†"),
]

Okay, next one:
For this molecule ( COc1cc(N2C[C@@H]3C[C@H](C2)N(C(=O)C2CC2)[C@H]3c2cc3c(C)nc4c(F)c(-c5cccc(Cl)c5Cl)c(CCC#N)cc4c3n2[C@H]2[C@H]3CN[C@@H]2C3)ccn1 (atropisomer, axis not shown; (Ra)) [Example 59] ), measured G12D_exchange (KRAS_G12D exchange assay IC50) is †
